Numbers sourced from paper PMC12677843.

tested on: juvenile S. mansoni; assay: In vitro drug sensitivity assay on juvenile S. mansoni; assay type: cell-based, Schistosoma mansoni; settings: 72 h incubation, 37 °C, 5% CO2
// reported EC50 for each item listed
Write the value in µM as a bare number.

// known answers, use as guide
# compound, EC50 (µM)
data = [
    ("O=C1N(C[c-]2cccc2)CCN1c1ncc([N+](=O)[O-])s1.[Fe+2].c1cc[cH-]c1", 5.7),
    ("C=CC([c-]1cccc1)N1CCN(c2ncc([N+](=O)[O-])s2)C1=O.[Fe+2].c1cc[cH-]c1 (racemic)", 12.2),
    ("O=C1N(C[c-]2cccc2)CCN1c1ncc([N+](=O)[O-])s1.[Ru+2].c1cc[cH-]c1", 8),
]

Q: EC50 for `O=C([c-]1cccc1)N1CCN(c2ncc([N+](=O)[O-])s2)C1=O.[Fe+2].c1cc[cH-]c1` ?
Result: 6.35
